target: T1, hRSV FTM-NN (membrane anchorless form of the Long fusion protein, 70 kDa) (human respiratory syncytial virus, …, UniProt P12568 26-524); assay: SPR (Biacore), FTM-NN amine-coupled on CM5 chip, 1:1 Langmuir fit
T1 construct: also called FTM-NN (Long); hRSV FTM-protein
Reported koff values for a set of binders
Quantity kind: koff

Binder | Quantity kind | Value reported
Nanobody 19E2 (VHH, also called PMP19E2; PRSV19E2) VHH: EVQLVESGGGLVQPGGSLRLSCAASGLTLDYYALGWFRQAPGKEREGVSCISSSDHTTTYTDSVKGRFTISWDNAKNTLYLQMNSLKPEDTAVYYCAADPALGCYSGSYYPRYDFWGQGTQVTVSS | koff | 0.00024 s⁻¹
Nanobody 23E5 (VHH, also called PMP23E5; PRSV23E5) VHH: EVQLMESGGGLVQAGGSLRLSCAASGGTFSSYAMGWFRQAPGEERDFVAAIGWSGNSPYYAQFVKGRFTISRDNAKNTVHLQMNSLKPEDTAVYYCAAAHNTMGSDYEGYDYWGQGTQVTVSS | koff | 0.0013 s⁻¹
Nanobody 13E12 (VHH, also called PMP13E12; PRSV13E12) VHH: EVQLVESGGGLVQAGGSLRLSCAASGRTFSRYIMGWFRQAPGKEREFVGAISRSGDITSFADFVKGRFTMSRDNAKNTLYLQMNSLEPEDTAVYSCAANSDTYYIYSDIVVPERYDYWGQGTQVTVSS | koff | 0.00016 s⁻¹
Nanobody NC41 (VHH) VHH: EVQLVESGGGLVQAGGSLSISCAASGGSLSNYVLGWFRQAPGKEREFVAAINWRGDITIGPPNVEGRFTISRDNAKNTGYLQMNSLAPDDTAVYYCGAGTPLNPGAYIYDWSYDYWGRGTQVTVSS | koff | 0.0067 s⁻¹
Nanobody 7B2 (VHH, also called PMP7B2; PRSV7B2) VHH: EVQLVESGGGLVQAGDSLRLSCAASGRTFSSYAMGWFRQAPGKEREFVAAISWSDGSTYYADSVKGRFTISRDNAKNTVYLQMNSLKPEDTAVYYCAADLTSTNPGSYIYIWAYDYWGQGTQVTVSS | koff | 0.00049 s⁻¹
